targetUnderTest: T1, human collagen type I, acid soluble, extracted from placenta (Sigma C7774) (human, UniProt P02452 162-1218; P08123 80-1119)
T1 construct: tissue extract, gelled and dried in wells; also called dried human collagen; h-Collagen
T1 sequence (P02452 162-1218 limits assumed, chain 1 of 2): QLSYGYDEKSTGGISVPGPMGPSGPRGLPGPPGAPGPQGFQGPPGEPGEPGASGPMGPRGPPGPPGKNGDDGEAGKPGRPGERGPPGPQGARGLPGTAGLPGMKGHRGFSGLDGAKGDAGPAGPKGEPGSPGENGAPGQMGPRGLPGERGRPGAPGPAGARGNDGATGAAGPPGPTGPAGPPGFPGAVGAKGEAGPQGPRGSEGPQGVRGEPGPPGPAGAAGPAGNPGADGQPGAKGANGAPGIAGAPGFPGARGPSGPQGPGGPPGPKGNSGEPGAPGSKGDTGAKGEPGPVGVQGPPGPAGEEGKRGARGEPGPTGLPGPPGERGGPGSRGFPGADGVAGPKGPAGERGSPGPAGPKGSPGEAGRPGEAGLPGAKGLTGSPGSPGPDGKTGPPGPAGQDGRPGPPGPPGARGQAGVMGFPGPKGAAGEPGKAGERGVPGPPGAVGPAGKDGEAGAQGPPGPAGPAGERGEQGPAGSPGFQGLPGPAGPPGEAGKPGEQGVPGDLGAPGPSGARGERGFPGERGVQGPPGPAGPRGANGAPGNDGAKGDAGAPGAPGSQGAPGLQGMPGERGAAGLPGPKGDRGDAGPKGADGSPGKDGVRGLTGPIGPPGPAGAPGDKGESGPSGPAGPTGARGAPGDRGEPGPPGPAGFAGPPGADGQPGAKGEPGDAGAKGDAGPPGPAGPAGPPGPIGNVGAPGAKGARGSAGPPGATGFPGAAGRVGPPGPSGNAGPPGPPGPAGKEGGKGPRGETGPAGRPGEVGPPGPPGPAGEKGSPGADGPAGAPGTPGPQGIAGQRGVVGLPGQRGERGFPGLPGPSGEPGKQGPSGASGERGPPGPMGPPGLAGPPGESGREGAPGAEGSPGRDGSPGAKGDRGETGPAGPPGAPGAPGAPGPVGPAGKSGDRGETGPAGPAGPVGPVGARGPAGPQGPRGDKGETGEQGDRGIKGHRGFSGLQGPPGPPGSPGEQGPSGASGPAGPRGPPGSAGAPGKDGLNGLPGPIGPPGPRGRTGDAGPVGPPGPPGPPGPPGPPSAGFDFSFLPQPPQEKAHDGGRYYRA
T1 sequence (P08123 80-1119 limits assumed, chain 2 of 2): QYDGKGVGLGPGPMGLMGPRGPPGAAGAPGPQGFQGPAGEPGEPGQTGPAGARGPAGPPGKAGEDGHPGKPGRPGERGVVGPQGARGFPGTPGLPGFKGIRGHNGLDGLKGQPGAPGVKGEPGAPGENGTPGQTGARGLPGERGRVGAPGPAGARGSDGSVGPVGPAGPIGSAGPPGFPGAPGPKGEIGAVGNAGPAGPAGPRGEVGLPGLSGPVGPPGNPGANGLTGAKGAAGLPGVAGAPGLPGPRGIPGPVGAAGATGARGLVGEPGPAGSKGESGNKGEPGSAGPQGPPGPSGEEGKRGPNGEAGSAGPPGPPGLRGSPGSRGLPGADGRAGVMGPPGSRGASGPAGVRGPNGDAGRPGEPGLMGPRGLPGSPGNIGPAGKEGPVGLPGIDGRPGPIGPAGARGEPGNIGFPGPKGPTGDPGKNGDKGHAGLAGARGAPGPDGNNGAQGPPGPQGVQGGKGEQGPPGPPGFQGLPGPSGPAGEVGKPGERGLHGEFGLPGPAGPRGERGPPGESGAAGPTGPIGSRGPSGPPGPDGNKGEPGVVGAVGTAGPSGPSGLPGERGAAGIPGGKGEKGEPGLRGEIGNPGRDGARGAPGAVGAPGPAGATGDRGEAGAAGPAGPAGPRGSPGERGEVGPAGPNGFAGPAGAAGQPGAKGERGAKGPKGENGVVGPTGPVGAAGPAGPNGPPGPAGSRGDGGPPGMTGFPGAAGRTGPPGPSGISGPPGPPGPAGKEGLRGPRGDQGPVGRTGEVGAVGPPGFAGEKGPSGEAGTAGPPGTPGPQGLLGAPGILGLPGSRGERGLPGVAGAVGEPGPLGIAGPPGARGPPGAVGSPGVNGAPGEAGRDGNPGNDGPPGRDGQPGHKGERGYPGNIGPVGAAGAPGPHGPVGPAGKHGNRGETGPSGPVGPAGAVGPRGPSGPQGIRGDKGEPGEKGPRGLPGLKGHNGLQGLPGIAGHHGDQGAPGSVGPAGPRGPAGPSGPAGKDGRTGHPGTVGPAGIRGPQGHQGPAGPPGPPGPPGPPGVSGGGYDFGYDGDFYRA
experimentNotes: dried collagen assay
Bridge positions count the residues as written; N and C are the ends. Square brackets hold non-standard residues; d marks the D form. Primed or numbered codes have the meaning given here. Side chains are listed from the residue outwards. Ends that are not written are not given here. Phe(4-NH2) = Nc1ccc(C[C@H](N)C(=O)O)cc1; Gd^T″ = GdDTPA-thiourea
Kindly return y if reported % bound is no lower than 30%; return n if it is lower.

[
  {
    "binder": "{Gd^T″}-GK([Gly-Gd^T″])WHCTTYFPHHYCL[Phe(4-NH2)]G (disulfide 5-14 (inferred); not fully specified (C-terminus)) [Compound ID 970]",
    "labelValue": "y"
  },
  {
    "binder": "{Gd^T″}-GQWHCTTDFPHHYCLFG (disulfide 5-14 (inferred)) [Compound ID 890]",
    "labelValue": "y"
  },
  {
    "binder": "{Gd^T″}-GQWHCTTRFPHHYCLYG (disulfide 5-14 (inferred); not fully specified (C-terminus)) [Compound ID 954]",
    "labelValue": "y"
  },
  {
    "binder": "{Gd^T″}-GK([Gly-Gd^T″])WHCTTYFPHHYCL[Phe(4-NH2)](Gd^T″)G (disulfide 5-14 (inferred); not fully specified (C-terminus)) [Compound ID 971]",
    "labelValue": "n"
  },
  {
    "binder": "{Gd^T″}-GK([Gly-Gd^T″])WHCTTLFPHHVCLYG (disulfide 5-14 (inferred)) [Compound ID 966]",
    "labelValue": "n"
  }
]
